- TARGET_SYSTEM: T1, recombinant human CD3 epsilon/gamma heterodimer (human, UniProt P07766 23-126; P09693 23-116)
- T1 construct: Recombinant heterodimer used as analyte in Octet; also called hCD3 E/G
- T1 sequence (P07766 23-126, chain 1 of 2): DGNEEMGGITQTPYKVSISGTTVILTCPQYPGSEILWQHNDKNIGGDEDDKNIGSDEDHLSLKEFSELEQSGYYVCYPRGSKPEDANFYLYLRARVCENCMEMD
- T1 sequence (P09693 23-116, chain 2 of 2): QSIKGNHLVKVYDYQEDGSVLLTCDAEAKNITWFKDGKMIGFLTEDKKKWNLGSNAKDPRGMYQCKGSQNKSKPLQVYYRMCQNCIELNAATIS
- PROCEDURE_DETAILS: BLI (Octet), mAb 5 ug/mL on FAB2G sensor, hCD3 E/G 200-50 nM;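 note: antibodies purified from hybridoma supernatants, measured by Octet binding to recombinant human CD3 protein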
// reported Response per item

Reference set, count: 2
{"BINDER": "ABL-CD3-84 (antibody, V domains shown, mAb purified from hybridoma; chimeric AlivaMab IgG (human VH, CH1 and upper hinge; mouse middle hinge, CH2, CH3; human light chain)) VH: EVQLVESGGGLVKPGGSLRLSCAASGFTFSNFIMNWVRQAPGKGLEWVSSISGSSNYIYYADSVKGRFTISGDNAKNSLYLQMNSLRAEDTAVYYCAREKWVLLFFDYWGQGTLVTVSS VL: NFMLTQPHSVSESPGKTVTISCTRSSGSIASNYVQWYQQRPGSSPTTMIYEDTQRPSGVPDRFSGSIDSSSNSASLTISGLKTEDEADYYCQSYDSSNRVFGGGTKLTVL", "RESULT": 0.1}
{"BINDER": "ABL-CD3-70 (antibody, V domains shown, mAb purified from hybridoma; chimeric AlivaMab IgG (human VH, CH1 and upper hinge; mouse middle hinge, CH2, CH3; human light chain)) VH: EVQLVESGGGLVKPGGSLRLSCAASGFTFSTYIMNWVRQAPGKGLEWVSSITSSSSYIYYADSVKGRFTISRDNAKNSLYLQMNSLRAEDTAVYYCAREKWELLFFDYWGQGTLVTVSS VL: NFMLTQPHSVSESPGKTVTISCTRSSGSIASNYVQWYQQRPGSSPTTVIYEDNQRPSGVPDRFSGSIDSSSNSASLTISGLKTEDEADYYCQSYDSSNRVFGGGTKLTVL", "RESULT": 0.11}

Okay, next one:
What the record says about ABL-CD3-81 (antibody, V domains shown, mAb purified from hybridoma; chimeric AlivaMab IgG (human VH, CH1 and upper hinge; mouse middle hinge, CH2, CH3; human light chain)) VH: QVQLQESGPGLVKPSQTLSLTCTVSGGSISSGGYYWSWIRQHPGKGLEWIGYIYYSGSTYYNPSLKSRVTISVDTSKDQFSLKLSSVTAADTAVYYCARERKTSLPFDIWGQGTMVTVSS VL: NFMLTQPHSVSESPGKTVTISCTRSSGSIASNYVQWYQQRPGSSPTTVIYEDNQRPSGVPDRFSGSIDSSSNSASLTISGLKTEDEAYYYCQSFDSSNRVFGGGTKLTVL : Response is 0.04
